FYI, the data here is from ChEMBL document CHEMBL2346595.

Target: Beta-secretase 2 (Homo sapiens, UniProt Q9Y5Z0)
Sequence (Q9Y5Z0 whole entry): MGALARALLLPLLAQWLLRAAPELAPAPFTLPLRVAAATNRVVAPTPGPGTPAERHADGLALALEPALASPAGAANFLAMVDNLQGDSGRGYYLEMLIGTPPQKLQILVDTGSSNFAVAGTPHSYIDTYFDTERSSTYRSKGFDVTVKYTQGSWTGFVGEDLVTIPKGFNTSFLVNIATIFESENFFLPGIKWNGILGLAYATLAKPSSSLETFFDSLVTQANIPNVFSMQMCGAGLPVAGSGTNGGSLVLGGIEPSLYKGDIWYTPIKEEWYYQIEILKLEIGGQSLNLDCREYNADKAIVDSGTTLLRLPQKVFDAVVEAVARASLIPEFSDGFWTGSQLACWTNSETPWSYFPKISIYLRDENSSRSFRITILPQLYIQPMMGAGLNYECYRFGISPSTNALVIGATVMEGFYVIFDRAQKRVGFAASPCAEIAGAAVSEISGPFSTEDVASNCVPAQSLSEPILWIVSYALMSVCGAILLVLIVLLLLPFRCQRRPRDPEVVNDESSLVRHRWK
pIC50: −log10 of the molar value.
Rule: label 1 for pIC50 not less than 7, label 0 for anything less.

Prompt: Given C[C@]1(c2cc(NC(=O)c3ccc(Cl)cn3)ccc2F)N=C(N)OCC1(F)F , state whether its pIC50 is at least 7.
Response: label 1

Prompt: Given Cc1cc(Cl)cnc1C(=O)Nc1ccc(F)c([C@@]2(C)N=C(N)OCC2(F)F)c1 , state whether its pIC50 is at least 7.
Response: label 1

Prompt: Given C#CCOc1cnc(C(=O)Nc2ccc(F)c([C@@]3(C)N=C(N)OCC3(F)F)c2)cn1 , state whether its pIC50 is at least 7.
Response: label 0

Prompt: Given Cc1ccc(C(=O)Nc2ccc(F)c([C@@]3(C)N=C(N)OCC3(F)F)c2)nc1 , state whether its pIC50 is at least 7.
Response: label 1

Prompt: Given C[C@]1(c2cc(NC(=O)c3cnc(OCC(F)(F)F)cn3)ccc2F)N=C(N)OCC1(F)F , state whether its pIC50 is at least 7.
Response: label 0

Prompt: Given C[C@]1(c2cc(NC(=O)c3ccccn3)ccc2F)N=C(N)OCC1(F)F , state whether its pIC50 is at least 7.
Response: label 1

Prompt: Given C[C@]1(c2cc(NC(=O)c3ccc(OC(F)(F)F)cn3)ccc2F)N=C(N)OCC1(F)F , state whether its pIC50 is at least 7.
Response: label 0

Prompt: Given C[C@]1(c2cc(NC(=O)c3ccc(OCC(F)(F)C(F)F)cn3)ccc2F)N=C(N)OCC1(F)F , state whether its pIC50 is at least 7.
Response: label 0

Prompt: Given C[C@@]1(c2cc(NC(=O)c3ccc(Cl)cn3)ccc2F)CCOC(N)=N1 , state whether its pIC50 is at least 7.
Response: label 1
